B1: Ribonuclease, P00648 (parent)
chain: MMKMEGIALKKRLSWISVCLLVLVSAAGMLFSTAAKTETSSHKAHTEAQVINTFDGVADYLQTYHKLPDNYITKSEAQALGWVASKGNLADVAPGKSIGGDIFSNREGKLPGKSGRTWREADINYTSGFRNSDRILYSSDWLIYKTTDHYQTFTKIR

Variants of: B1
Settings: Bacillus amyloliquefaciens; pH 6.3; 25 °C; Urea; Fluorescence; MES-NaOH 450 mM; reversible: yes; structure 1BNI; whole UniProt chain shown
Measured metric: unfolding free energy (kcal/mol)
Form entry: value (kcal/mol) — number only.

Reference set, count: 5
{"columns": ["Mutation key", "Experimental result"],
 "data": [
  ["Q78S", 8.89],
  ["D59A", 8.43],
  ["V57T", 6.83],
  ["I98A", 4.1],
  ["L61A", 4.29]
]}

Read off the recorded unfolding free energy for "T63S" 7.46

Read off the recorded unfolding free energy for "T53G" 8.21

Read off the recorded unfolding free energy for "I72A" 5.14

Read off the recorded unfolding free energy for "I51A" 8.07

Read off the recorded unfolding free energy for "D101N" 7.04

Read off the recorded unfolding free energy for "E76G" 6.77

Read off the recorded unfolding free energy for "T146V" 5.9

Read off the recorded unfolding free energy for "I51V" 8.01

Read off the recorded unfolding free energy for "N124A" 7.37
